meta.source: ChEMBL document CHEMBL6074682

experiment: Therapeutic index, ratio of HC50 for human RBC to MIC for antibacterial activity against methicillin-sensitive Staphylococcus aureus ATCC 29213 clinical isolate; format: toxicity, cell-based; details: pooled result: one value given for 2 cell lines, strains, targets or settings, read-out: TI
Square brackets hold non-standard residues; d marks the D form. Peptide text beside a SMILES is read from it. Tle = CC(C)(C)[C@H](N)C(=O)O; Orn = NCCC[C@H](N)C(=O)O
Each record here notes measured selectivity ratio.
I'd appreciate a reply containing only the number, no unit.

>  <molecule>
CC(C)C[C@@H]1NC(=O)[C@H](CCCN)NC(=O)[C@H](C(C)(C)C)NC(=O)[C@@H]2CCCN2C(=O)[C@@H](Cc2ccccc2)NC(=O)[C@H](CC(C)C)NC(=O)[C@H](CCCN)NC(=O)[C@H](C(C)(C)C)NC(=O)[C@@H]2CCCN2C(=O)[C@@H](Cc2ccccc2)NC1=O (HELM PEPTIDE1{L.[dF].P.[CC(C)(C)[C@H](N[*:1])C(=O)[*:2]].[Orn].L.[dF].P.[CC(C)(C)[C@H](N[*:1])C(=O)[*:2]].[Orn]}$PEPTIDE1,PEPTIDE1,1:R1-10:R2$$$V2.0)

>  <measured.metric>
selectivity ratio

>  <recorded.result>
1.57

$$$$
>  <molecule>
CC(C)(C)[C@@H]1NC(=O)[C@H](CCCN)NC(=O)[C@H](C(C)(C)C)NC(=O)[C@@H]2CCCN2C(=O)[C@@H](Cc2ccccc2)NC(=O)[C@H](C(C)(C)C)NC(=O)[C@H](CCCN)NC(=O)[C@H](C(C)(C)C)NC(=O)[C@@H]2CCCN2C(=O)[C@@H](CCCNC(=N)N)NC1=O (cyclo([Orn][Tle][dF]P[Tle][Orn][Tle][dR]P[Tle]))

>  <measured.metric>
selectivity ratio

>  <recorded.result>
14

$$$$
>  <molecule>
CC(C)C[C@@H]1NC(=O)[C@H](CCCN)NC(=O)[C@H](C(C)C)NC(=O)[C@@H]2CCCN2C(=O)[C@@H](Cc2ccccc2)NC(=O)[C@H](CC(C)C)NC(=O)[C@H](CCCN)NC(=O)[C@H](C(C)C)NC(=O)[C@@H]2CCCN2C(=O)[C@@H](Cc2ccccc2)NC1=O [GRAMICIDIN S] (HELM PEPTIDE1{L.[dF].P.V.[Orn].L.[dF].P.V.[Orn]}$PEPTIDE1,PEPTIDE1,1:R1-10:R2$$$V2.0)

>  <measured.metric>
selectivity ratio

>  <recorded.result>
3.09

$$$$
>  <molecule>
CC(C)C[C@@H]1NC(=O)[C@H](CCCN)NC(=O)[C@H](C(C)(C)C)NC(=O)[C@@H]2CCCN2C(=O)[C@@H](CCCNC(=N)N)NC(=O)[C@H](CC(C)C)NC(=O)[C@H](CCCN)NC(=O)[C@H](C(C)C)NC(=O)[C@@H]2CCCN2C(=O)[C@@H](Cc2ccccc2)NC1=O

>  <measured.metric>
selectivity ratio

>  <recorded.result>
7.21

$$$$
>  <molecule>
CC(C)C[C@@H]1NC(=O)[C@H](CCCN)NC(=O)[C@H](C(C)C)NC(=O)[C@@H]2CCCN2C(=O)[C@@H](Cc2ccccc2)NC(=O)[C@H](CC(C)C)NC(=O)[C@H](CCCN)NC(=O)[C@H](C(C)C)NC(=O)[C@H](Cc2c[nH]c3ccccc23)NC(=O)[C@@H](Cc2ccccc2)NC1=O (HELM PEPTIDE1{L.[dF].P.V.[Orn].L.[dF].W.V.[Orn]}$PEPTIDE1,PEPTIDE1,1:R1-10:R2$$$V2.0)

>  <measured.metric>
selectivity ratio

>  <recorded.result>
2.26

$$$$
>  <molecule>
CC(C)C[C@@H]1NC(=O)[C@H](CCCN)NC(=O)[C@H](C(C)C)NC(=O)[C@@H]2CCCN2C(=O)[C@@H](Cc2ccccc2)NC(=O)[C@H](CC(C)C)NC(=O)[C@H](CCCN)NC(=O)[C@H](C(C)C)NC(=O)[C@@H]2CCCN2C(=O)[C@@H](CCCNC(=N)N)NC1=O (HELM PEPTIDE1{L.[dF].P.V.[Orn].L.[dR].P.V.[Orn]}$PEPTIDE1,PEPTIDE1,1:R1-10:R2$$$V2.0)

>  <measured.metric>
selectivity ratio

>  <recorded.result>
4.9

$$$$

Proceeding to the next molecule to report its selectivity ratio.
Ask: For the molecule shown here, CC(C)C[C@@H]1NC(=O)[C@H](CCCN)NC(=O)[C@H](C(C)C)NC(=O)[C@H](Cc2c[nH]c3ccccc23)NC(=O)[C@@H](Cc2ccccc2)NC(=O)[C@H](CC(C)C)NC(=O)[C@H](CCCN)NC(=O)[C@H](C(C)C)NC(=O)[C@H](Cc2c[nH]c3ccccc23)NC(=O)[C@@H](CCCNC(=N)N)NC1=O (HELM PEPTIDE1{L.[dF].W.V.[Orn].L.[dR].W.V.[Orn]}$PEPTIDE1,PEPTIDE1,1:R1-10:R2$$$V2.0) , give the reported selectivity ratio.
Reply: 3.93
